All figures here come from ChEMBL document CHEMBL1145302.

# Test system: Staphylococcus aureus
# protocolDescription: Antibacterial activity against erythromycin-susceptible Staphylococcus aureus Smith OC4172
# Format: functional
attributeMeasured: log10(MIC) (log10 of the value in µg/mL)
# values: log10(MIC), units µg/mL

Identify the measured log10(MIC) of `CC[C@H]1OC(=O)[C@H](C)C(=O)[C@H](C)[C@@H](O[C@@H]2O[C@H](C)C[C@H](N(C)C)[C@H]2O)[C@](C)(OC(=O)NN(C)Cc2ccc(-c3ncccn3)cc2)C[C@@H](C)C(=O)[C@H](C)[C@H]2NC(=O)O[C@@]21C` for Staphylococcus aureus. 0.30

Next up: `CC[C@H]1OC(=O)[C@H](C)C(=O)[C@H](C)[C@@H](O[C@@H]2O[C@H](C)C[C@H](N(C)C)[C@H]2O)[C@](C)(OC(=O)NN(C)CCCc2ccc(-c3ncccn3)cc2)C[C@@H](C)C(=O)[C@H](C)[C@H]2NC(=O)O[C@@]21C` -0.30

* * *

# Tested on: Streptococcus pneumoniae
# protocolDescription: Antibacterial activity against erythromycin-resistant Streptococcus pneumoniae OC4421 containing mef(A)
# Type: functional
attributeMeasured: MIC (µg/mL)
Value expressed in µg/mL; do not type the unit.

CC[C@H]1OC(=O)[C@H](C)C(=O)[C@H](C)[C@@H](O[C@@H]2O[C@H](C)C[C@H](N(C)C)[C@H]2O)[C@](C)(OC(=O)N(C)NCCc2ccc(-c3cnccn3)cc2)C[C@@H](C)C(=O)[C@H](C)[C@H]2NC(=O)O[C@@]21C ... 0.5
CC[C@H]1OC(=O)[C@H](C)C(=O)[C@H](C)[C@@H](O[C@@H]2O[C@H](C)C[C@H](N(C)C)[C@H]2O)[C@](C)(OC(=O)NN(C)CCc2ccc(-c3ncccn3)cc2F)C[C@@H](C)C(=O)[C@H](C)[C@H]2NC(=O)O[C@@]21C ... 0.25
CC[C@H]1OC(=O)[C@H](C)C(=O)[C@H](C)[C@@H](O[C@@H]2O[C@H](C)C[C@H](N(C)C)[C@H]2O)[C@](C)(OC(=O)NN(CC)CCc2ccc(-c3ncccn3)cc2)C[C@@H](C)C(=O)[C@H](C)[C@H]2NC(=O)O[C@@]21C ... 0.25

Identify the measured MIC of `CC[C@H]1OC(=O)[C@H](C)C(=O)[C@H](C)[C@@H](O[C@@H]2O[C@H](C)C[C@H](N(C)C)[C@H]2O)[C@](C)(OC(=O)NN(C)C/C=C/c2ccc(-c3ncccn3)cc2)C[C@@H](C)C(=O)[C@H](C)[C@H]2NC(=O)O[C@@]21C` for Streptococcus pneumoniae. 0.5

* * *

# Test system: Staphylococcus aureus
# protocolDescription: Antibacterial activity against Staphylococcus aureus Smith infected in sc dosed Swiss Webster mouse septicemia model
# Type: functional
ED50 for assorted compounds
Value expressed in mg/kg; do not type the unit.

CC[C@H]1OC(=O)[C@H](C)C(=O)[C@H](C)[C@@H](O[C@@H]2O[C@H](C)C[C@H](N(C)C)[C@H]2O)[C@](C)(OC)C[C@@H](C)C(=O)[C@H](C)[C@H]2N(CCCCn3cnc(-c4cccnc4)c3)C(=O)O[C@]12C ... 4.3

Now let's try a different one.
Please look up its ED50: `CC[C@H]1OC(=O)[C@H](C)C(=O)[C@H](C)[C@@H](O[C@@H]2O[C@H](C)C[C@H](N(C)C)[C@H]2O)[C@](C)(OC(=O)NN(C)CCc2ccc(-c3ncccn3)cc2F)C[C@@H](C)C(=O)[C@H](C)[C@H]2NC(=O)O[C@@]21C` 2.3

* * *

# System: Streptococcus pneumoniae
# protocolDescription: Antibacterial activity against erythromycin-resistant Streptococcus pneumoniae OC4051 containing erm(B)
# Type: functional
attributeMeasured: MIC (µg/mL)
Value expressed in µg/mL; do not type the unit.

CC[C@H]1OC(=O)[C@H](C)C(=O)[C@H](C)[C@@H](O[C@@H]2O[C@H](C)C[C@H](N(C)C)[C@H]2O)[C@](C)(OC(=O)N(C)NCCc2ccc(-c3cnccn3)cc2)C[C@@H](C)C(=O)[C@H](C)[C@H]2NC(=O)O[C@@]21C ... 0.12

Please look up its MIC: `CC[C@H]1OC(=O)[C@H](C)C(=O)[C@H](C)[C@@H](O[C@@H]2O[C@H](C)C[C@H](N(C)C)[C@H]2O)[C@](C)(OC(=O)NNCCc2cccc(-c3ncccn3)c2)C[C@@H](C)C(=O)[C@H](C)[C@H]2NC(=O)O[C@@]21C` 0.06

Next up: `CC[C@H]1OC(=O)[C@H](C)C(=O)[C@H](C)[C@@H](O[C@@H]2O[C@H](C)C[C@H](N(C)C)[C@H]2O)[C@](C)(OC(=O)NN)C[C@@H](C)C(=O)[C@H](C)[C@H]2NC(=O)O[C@@]21C` 8

* * *

# Tested on: Streptococcus pneumoniae
# protocolDescription: Antibacterial activity against erythromycin-susceptible Streptococcus pneumoniae OC9132
# Type: functional
MIC for assorted compounds
Value expressed in µg/mL; do not type the unit.

CC[C@H]1OC(=O)[C@H](C)C(=O)[C@H](C)[C@@H](O[C@@H]2O[C@H](C)C[C@H](N(C)C)[C@H]2O)[C@](C)(OC(=O)NNCCc2cccc(-c3ncccn3)c2)C[C@@H](C)C(=O)[C@H](C)[C@H]2NC(=O)O[C@@]21C ... 0.03
CC[C@H]1OC(=O)[C@H](C)C(=O)[C@H](C)[C@@H](O[C@@H]2O[C@H](C)C[C@H](N(C)C)[C@H]2O)[C@](C)(OC(=O)NN(C)CCc2ccc(-c3ncccn3)cc2)C[C@@H](C)C(=O)[C@H](C)[C@H]2NC(=O)O[C@@]21C ... 0.03
CC[C@H]1OC(=O)[C@H](C)C(=O)[C@H](C)[C@@H](O[C@@H]2O[C@H](C)C[C@H](N(C)C)[C@H]2O)[C@](C)(OC(=O)NN)C[C@@H](C)C(=O)[C@H](C)[C@H]2NC(=O)O[C@@]21C ... 0.5

Now let's try a different one.
Please look up its MIC: `CC[C@H]1OC(=O)[C@H](C)C(=O)[C@H](C)[C@@H](O[C@@H]2O[C@H](C)C[C@H](N(C)C)[C@H]2O)[C@](C)(OC(=O)N(C)NCCc2ccc(-c3cnccn3)cc2)C[C@@H](C)C(=O)[C@H](C)[C@H]2NC(=O)O[C@@]21C` 0.06

* * *

MIC for assorted compounds
# Tested on: Staphylococcus aureus
# protocolDescription: Antibacterial activity against erythromycin-susceptible Staphylococcus aureus Smith OC4172
# Assay type: functional

Reference set, count: 4
CC[C@H]1OC(=O)[C@H](C)C(=O)[C@H](C)[C@@H](O[C@@H]2O[C@H](C)C[C@H](N(C)C)[C@H]2O)[C@](C)(OC(=O)N(C)N(C)CCc2ccc(-c3cnccn3)cc2)C[C@@H](C)C(=O)[C@H](C)[C@H]2NC(=O)O[C@@]21C ... 2 µg/mL
CC[C@H]1OC(=O)[C@H](C)C(=O)[C@H](C)[C@@H](O[C@@H]2O[C@H](C)C[C@H](N(C)C)[C@H]2O)[C@](C)(OC(=O)NNCCc2cnc3ccccc3c2)C[C@@H](C)C(=O)[C@H](C)[C@H]2NC(=O)O[C@@]21C ... 0.5 µg/mL
CC[C@H]1OC(=O)[C@H](C)C(=O)[C@H](C)[C@@H](O[C@@H]2O[C@H](C)C[C@H](N(C)C)[C@H]2O)[C@](C)(OC(=O)NN(C)CCc2ccc(-c3ncccn3)cc2)C[C@@H](C)C(=O)[C@H](C)[C@H]2NC(=O)O[C@@]21C ... 0.25 µg/mL
CC[C@H]1OC(=O)[C@H](C)C(=O)[C@H](C)[C@@H](O[C@@H]2O[C@H](C)C[C@H](N(C)C)[C@H]2O)[C@](C)(OC(=O)NN(C)CCc2ccc(-c3ncccn3)cc2F)C[C@@H](C)C(=O)[C@H](C)[C@H]2NC(=O)O[C@@]21C ... 0.5 µg/mL

Please look up its MIC: `CC[C@H]1OC(=O)[C@H](C)[C@@H](O[C@H]2C[C@@](C)(OC)[C@@H](O)[C@H](C)O2)[C@H](C)[C@@H](O[C@@H]2O[C@H](C)C[C@H](N(C)C)[C@H]2O)[C@](C)(O)C[C@@H](C)C(=O)[C@H](C)[C@@H](O)[C@]1(C)O` 1 µg/mL

* * *

# Tested on: Streptococcus pneumoniae
# protocolDescription: Antibacterial activity against erythromycin-resistant Streptococcus pneumoniae OC4421 containing mef(A)
# Type: functional
attributeMeasured: MIC (µg/mL)
Value expressed in µg/mL; do not type the unit.

CC[C@H]1OC(=O)[C@H](C)C(=O)[C@H](C)[C@@H](O[C@@H]2O[C@H](C)C[C@H](N(C)C)[C@H]2O)[C@](C)(OC(=O)NNCCc2cccc(-c3ncccn3)c2)C[C@@H](C)C(=O)[C@H](C)[C@H]2NC(=O)O[C@@]21C ... 0.25
CC[C@H]1OC(=O)[C@H](C)C(=O)[C@H](C)[C@@H](O[C@@H]2O[C@H](C)C[C@H](N(C)C)[C@H]2O)[C@](C)(OC(=O)NN(C)CCCc2ccc(-c3ncccn3)cc2)C[C@@H](C)C(=O)[C@H](C)[C@H]2NC(=O)O[C@@]21C ... 0.5
CC[C@H]1OC(=O)[C@H](C)C(=O)[C@H](C)[C@@H](O[C@@H]2O[C@H](C)C[C@H](N(C)C)[C@H]2O)[C@](C)(OC(=O)NN(C)CCc2ccc(-c3cnccn3)cc2)C[C@@H](C)C(=O)[C@H](C)[C@H]2NC(=O)O[C@@]21C ... 0.25
CC[C@H]1OC(=O)[C@H](C)[C@@H](O[C@H]2C[C@@](C)(OC)[C@@H](O)[C@H](C)O2)[C@H](C)[C@@H](O[C@@H]2O[C@H](C)C[C@H](N(C)C)[C@H]2O)[C@](C)(O)C[C@@H](C)C(=O)[C@H](C)[C@@H](O)[C@]1(C)O ... 4

Now let's try a different one.
Please look up its MIC: `CC[C@H]1OC(=O)[C@H](C)C(=O)[C@H](C)[C@@H](O[C@@H]2O[C@H](C)C[C@H](N(C)C)[C@H]2O)[C@](C)(OC(=O)NNCCc2cnc3ccccc3c2)C[C@@H](C)C(=O)[C@H](C)[C@H]2NC(=O)O[C@@]21C` 0.25
